The measured values listed here are drawn from patent US20170210813A1.

Provide the recorded kon for the entries that follow.
# TGT: T1, human PDGFRb.hFc (human)
# T1 construct: Soluble dimeric construct with human Fc; also called hPDGFRb.hFc
# EXPERIMENT_SUMMARY: SPR, mAb captured, 37 C
Numbers only, in M⁻¹ s⁻¹.

Illustrative cases are given below, each with its answer.
INSERT INTO measurements (binder, units_of_measure, recorded_value) VALUES
  ('H4H3105S (antibody, human IgG4, V domains shown, human IgG4 Fc (H4H prefix)) VH: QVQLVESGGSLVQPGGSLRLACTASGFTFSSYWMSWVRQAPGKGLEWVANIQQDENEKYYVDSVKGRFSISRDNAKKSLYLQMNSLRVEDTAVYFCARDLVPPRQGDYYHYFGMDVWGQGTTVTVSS VL: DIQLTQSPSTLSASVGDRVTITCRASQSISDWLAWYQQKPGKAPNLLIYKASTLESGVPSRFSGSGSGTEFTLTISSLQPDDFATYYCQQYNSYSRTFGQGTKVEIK', 'M⁻¹ s⁻¹', 280000),
  ('H4H3106S (antibody, human IgG4, V domains shown, human IgG4 Fc (H4H prefix)) VH: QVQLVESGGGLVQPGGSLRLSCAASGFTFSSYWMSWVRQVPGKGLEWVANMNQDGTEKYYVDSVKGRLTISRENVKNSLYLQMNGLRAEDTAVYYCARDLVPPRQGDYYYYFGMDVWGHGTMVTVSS VL: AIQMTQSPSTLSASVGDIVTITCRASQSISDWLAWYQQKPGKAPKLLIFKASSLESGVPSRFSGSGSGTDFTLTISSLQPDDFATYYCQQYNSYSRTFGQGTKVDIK', 'M⁻¹ s⁻¹', 356000),
  ('H4H3103S (antibody, human IgG4, V domains shown, human IgG4 Fc (H4H prefix)) VH: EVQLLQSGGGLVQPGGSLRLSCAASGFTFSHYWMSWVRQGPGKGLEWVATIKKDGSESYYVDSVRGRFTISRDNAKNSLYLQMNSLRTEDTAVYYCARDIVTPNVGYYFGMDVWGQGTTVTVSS VL: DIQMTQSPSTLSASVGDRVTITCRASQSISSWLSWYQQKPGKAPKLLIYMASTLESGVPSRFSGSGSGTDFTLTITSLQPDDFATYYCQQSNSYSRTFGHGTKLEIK', 'M⁻¹ s⁻¹', 757000);

Field: next binder
Look up kon for this binder: H4H3098S (antibody, human IgG4, V domains shown, human IgG4 Fc (H4H prefix)) VH: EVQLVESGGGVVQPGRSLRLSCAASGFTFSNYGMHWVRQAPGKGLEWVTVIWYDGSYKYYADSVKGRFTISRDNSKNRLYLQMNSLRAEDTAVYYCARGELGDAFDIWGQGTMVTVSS VL: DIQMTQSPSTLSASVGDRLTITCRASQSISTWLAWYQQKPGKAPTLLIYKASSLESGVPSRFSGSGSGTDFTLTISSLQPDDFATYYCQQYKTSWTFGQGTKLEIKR
374000
